Recorded values, source paper PMC5024298.

- System: drTRPM7-1258
- protocol notes: Whole-cell patch-clamp of HEK293 T-REx cells overexpressing truncation mutant drTRPM7-1258
- Type: cell-based, zebrafish (Danio rerio)
- settings: +80 mV, 200 s; Hill = 2; read-out: IC50 of internal Mg^2+
pIC50: −log10 of the molar value.
test readout: pIC50

[Mg+2] [Mg^2+, magnesium] ... 3.60

###

- Tested on: zebrafish TRPM7 (drTRPM7) wild type
- protocol notes: Whole-cell patch-clamp of tetracycline-induced HEK293 T-REx cells overexpressing wild type drTRPM7
- Format: cell-based, zebrafish (Danio rerio)
- settings: internal free Mg^2+ 250 μM; +80 mV, 200 s; Hill coefficient set to 1; read-out: IC50 of intracellular Mg·ATP on drTRPM7 currents (Fig. 1E legend)
test readout: IC50

Nc1ncnc2c1ncn2[C@@H]1O[C@H](COP(=O)(O)OP(=O)([O-])OP(=O)([O-])O)[C@@H](O)[C@H]1O.[Mg+2] [Mg·ATP, Mg·adenosine triphosphate] ... 1.16 mM
